tested on: HeLa cells; experiment: Luciferase Protein Expression Assay in HeLa Cells; assay type: cell-based, Human; conditions: LNPs encapsulating Luciferase mRNA, 25 ng per well, N=4 wells; 5 h serum-free then 24 h; ONE-Glo
Structures can show the parent of a compound that is named as a salt.
Value Kind: Average Relative Light Units ± Standard Deviation (Relative Light Units)

CC[C@H](CC[C@@H](C)[C@H]1CC[C@H]2[C@@H]3CC=C4C[C@@H](OC(=O)N(CCCCCCCC(C)(C)N)CCC(C)(C)N)CC[C@]4(C)[C@H]3CC[C@]12C)C(C)C [SA153, dihydrochloride] :: 35859.3
CC[C@H](CC[C@@H](C)[C@H]1CC[C@H]2[C@@H]3CC=C4C[C@@H](OC(=O)CCCC(=O)N(CCCCNCCC(C)N)CCC(C)N)CC[C@]4(C)[C@H]3CC[C@]12C)C(C)C.Cl.Cl.Cl (some centres unmarked) :: 16245.8

---

assay: Diameter and PDI from DLS measurements of mRNA nanoparticles with lipid amines; format: physicochemical; settings: Luciferase mRNA nanoparticle modified with lipid amine
Counter-ions that a name gives are not always drawn.
Value Kind: PDI

CC(C)CCC[C@@H](C)[C@H]1CC[C@H]2[C@@H]3CC=C4C[C@@H](OC(=O)N(CCCCNCCC5(N)CC5)CCC5(N)CC5)CC[C@]4(C)[C@H]3CC[C@]12C [SA124, trihydrochloride] :: 0.14
CC[C@H](CC[C@@H](C)[C@H]1CC[C@H]2[C@@H]3CC=C4C[C@@H](OC(=O)CCCC(=O)N(CCCN)CCCCCCCCN)CC[C@]4(C)[C@H]3CC[C@]12C)C(C)C.Cl.Cl :: 0.12

---

Listed here are compounds together with their documented Diameter (nm).
experiment: Diameter and PDI from DLS measurements of mRNA nanoparticles with lipid amines; assay type: physicochemical; conditions: CFTR mRNA nanoparticle with lipid amine
Structures can show the parent of a compound that is named as a salt.
Value Kind: Diameter (nm)

CCC(N)(CC)CCNCCCCN(CCC(N)(CC)CC)C(=O)CCCC(=O)O[C@H]1CC[C@@]2(C)C(=CC[C@H]3[C@@H]4CC[C@H]([C@H](C)CCCC(C)C)[C@@]4(C)CC[C@@H]32)C1 [SA185, trihydrochloride] :: 73
CC[C@H](CC[C@@H](C)[C@H]1CC[C@H]2[C@@H]3CC=C4C[C@@H](OC(=O)N(CCCCCCN)CCCCCCN)CC[C@]4(C)[C@H]3CC[C@]12C)C(C)C [SA82, dihydrochloride] :: 80.7
CC(C)CCC[C@@H](C)[C@H]1CC[C@H]2[C@@H]3CC=C4C[C@@H](OC(=O)N(CCCN)CCCCCCCCN)CC[C@]4(C)[C@H]3CC[C@]12C [SA60, dihydrochloride] :: 70.9
CC(C)CCC[C@@H](C)[C@H]1CC[C@H]2[C@@H]3CC=C4C[C@@H](OC(=O)CN(CCCCCCCCN)C(=O)[C@@H](N)CCCN)CC[C@]4(C)[C@H]3CC[C@]12C.Cl.Cl.Cl [SA129] :: 81.6
CC(C)CCC[C@@H](C)[C@H]1CC[C@H]2[C@@H]3CC=C4C[C@@H](OC(=O)N(CCCCNCCC5(N)CC5)CCC5(N)CC5)CC[C@]4(C)[C@H]3CC[C@]12C [SA124, trihydrochloride] :: 72.0
CC(C)CCC[C@@H](C)[C@H]1CC[C@H]2[C@@H]3CC=C4C[C@@H](OC(=O)N(CCCCN(C)CCCN(C)C)CCCN(C)C)CC[C@]4(C)[C@H]3CC[C@]12C [SA68] :: 74.6
